experiment: Clinical trial 005, rifalazil concentration in plasma of tuberculosis patients; type: in vivo, human; details: human, plasma, INH + 25 mg KRM; Hour 12; read-out: Rifalazil Concentration in Plasma, Med
PARAMETER: concentration at 12 h

Param item = CO[C@H]1/C=C/O[C@@]2(C)Oc3c(C)c(O)c4c(=O)c(c5oc6cc(N7CCN(CC(C)C)CC7)cc(O)c6nc-5c4c3C2=O)NC(=O)/C(C)=C\C=C\[C@H](C)[C@H](O)[C@@H](C)[C@@H](O)[C@@H](C)[C@H](OC(C)=O)[C@@H]1C ; retrieve measured concentration at 12 h.
18.1 ng/mL

----------
Assay: Clinical trial 005, rifalazil concentration in plasma of tuberculosis patients
Type: in vivo, human
Details: human, plasma, INH + 25 mg KRM; Hour 2; read-out: Rifalazil Concentration in Plasma, Med
Experimental: Definite diagnosis and evaluation of treatment efficacy requires direct examination of sputum for the presence of M. tuberculosis. The extent of M. tuberculosis infection is determined by number of bacteria able to form colonies and is expressed as colony forming units. […] The CFU, typically expressed as Log10, have therefore important diagnostic and treatment evaluative value. Table 21 summarizes the plasma concentrations data of rifalazil measured in patients that received rifalazil at zero hour. […]
PARAMETER: concentration at 2 h (ng/mL)
Unit ng/mL implied. Number only.

Item under review: CO[C@H]1/C=C/O[C@@]2(C)Oc3c(C)c(O)c4c(=O)c(c5oc6cc(N7CCN(CC(C)C)CC7)cc(O)c6nc-5c4c3C2=O)NC(=O)/C(C)=C\C=C\[C@H](C)[C@H](O)[C@@H](C)[C@@H](O)[C@@H](C)[C@H](OC(C)=O)[C@@H]1C . Reported concentration at 2 h?
11.4

----------
experiment: in vivo; parameters: species or system rats; conditions: rat, 3 mg/kg
PARAMETER: bioavailability

# bioavailability lookup, item CO[C@H]1/C=C/O[C@@]2(C)Oc3c(C)c(O)c4c(=O)c(c5oc6cc(N7CCN(CC(C)C)CC7)cc(O)c6nc-5c4c3C2=O)NC(=O)/C(C)=C\C=C\[C@H](C)[C@H](O)[C@@H](C)[C@@H](O)[C@@H](C)[C@H](OC(C)=O)[C@@H]1C
30 to 40%

----------
assay: Clinical trial 005, rifalazil concentration in plasma of tuberculosis patients; type: in vivo, human; conditions: human, plasma, INH + 10 mg KRM; Hour 72; read-out: Rifalazil Concentration in Plasma, Med
PARAMETER: concentration at 72 h

Recorded concentration at 72 h for CO[C@H]1/C=C/O[C@@]2(C)Oc3c(C)c(O)c4c(=O)c(c5oc6cc(N7CCN(CC(C)C)CC7)cc(O)c6nc-5c4c3C2=O)NC(=O)/C(C)=C\C=C\[C@H](C)[C@H](O)[C@@H](C)[C@@H](O)[C@@H](C)[C@H](OC(C)=O)[C@@H]1C [Rifalazil] , please?
1 ng/mL

----------
experiment: Clinical trial 005, rifalazil concentration in plasma of tuberculosis patients; format: in vivo, human; details: human, plasma, INH + 10 mg KRM; Hour 5; read-out: Rifalazil Concentration in Plasma, Mean
PARAMETER: concentration at 5 h (ng/mL)
Give the number; ng/mL is assumed, so skip it.

Record request: concentration at 5 h value, item CO[C@H]1/C=C/O[C@@]2(C)Oc3c(C)c(O)c4c(=O)c(c5oc6cc(N7CCN(CC(C)C)CC7)cc(O)c6nc-5c4c3C2=O)NC(=O)/C(C)=C\C=C\[C@H](C)[C@H](O)[C@@H](C)[C@@H](O)[C@@H](C)[C@H](OC(C)=O)[C@@H]1C [Rifalazil]
12.5
